Experimental system: human CRTH2 (Homo sapiens)
Construct: expressed in transfected cells
Sequence (Q9Y5Y4 whole entry): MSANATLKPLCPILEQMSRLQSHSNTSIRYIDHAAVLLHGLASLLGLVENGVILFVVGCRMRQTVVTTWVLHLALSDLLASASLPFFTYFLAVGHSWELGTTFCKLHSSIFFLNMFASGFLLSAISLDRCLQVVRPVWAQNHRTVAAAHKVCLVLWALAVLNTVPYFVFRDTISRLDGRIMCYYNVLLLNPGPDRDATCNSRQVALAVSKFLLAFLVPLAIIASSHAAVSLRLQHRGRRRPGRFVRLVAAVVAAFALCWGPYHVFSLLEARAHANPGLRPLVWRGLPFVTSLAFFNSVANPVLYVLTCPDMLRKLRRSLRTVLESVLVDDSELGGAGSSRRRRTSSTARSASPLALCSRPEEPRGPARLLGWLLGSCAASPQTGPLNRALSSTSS
Measurement notes: [35S]GTPγS binding assay (SPA) on membranes from CHO-K1 cells stably expressing human CRTH2, stimulated with 60 nM DHK-PGD2
Format: biochemical
Run parameters: potency class symbols; Table 2; read-out: CRTH2 hGTPγS IC50
Reported IC50 by item:
Endpoint name: IC50

>>> df
                                smiles_code  measured_result
0  CN(Cc1cc(-c2cccc(C#N)c2)c(OCC(=O)O)cc1F)S(=O)(=O)c1ccc(F)cc1         < 0.1 µM
1  CN(Cc1ccc(OCC(=O)O)c(-c2cccc(C(F)(F)F)c2)c1)S(=O)(=O)c1ccc(F)cc1F      0.1 to 1 µM
2  CN(Cc1ccc(OCC(=O)O)c(-c2cccc(Cl)c2)c1)S(=O)(=O)c1ccc(F)cc1       1 to 10 µM
3  CN(Cc1ccc(OCC(=O)O)c(-c2cc(F)cc(C#N)c2)c1)S(=O)(=O)c1cccc(F)c1         < 0.1 µM
4  CN(Cc1ccc(OCC(=O)O)c(-c2cccc3ncccc23)c1)S(=O)(=O)c1ccc(F)cc1       1 to 10 µM
5  CN(Cc1ccc(OCC(=O)O)c(-c2cncnc2)c1)S(=O)(=O)c1ccccc1       1 to 10 µM
6  CN(Cc1cc(-c2cc(F)cc(C#N)c2)c(OCC(=O)O)cc1F)S(=O)(=O)c1ccc(Cl)c(Cl)c1         < 0.1 µM
